- System: RARa:RXR (NR concentration 270 nM, RXRa partner concentration 90 nM)
- assay-method-text: PBM binding z-score (relative to random genomic background probes); higher = stronger binding; sequences stand for … in GC…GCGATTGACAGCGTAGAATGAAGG
experimental-readout: PBM binding z-score
Keep the answer to the number alone.

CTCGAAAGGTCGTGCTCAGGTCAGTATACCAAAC 6.37
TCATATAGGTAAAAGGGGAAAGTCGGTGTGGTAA 1.17
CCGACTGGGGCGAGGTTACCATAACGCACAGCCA 1.1

What reported PBM binding z-score corresponds to `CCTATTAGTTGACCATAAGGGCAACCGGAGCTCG` on RARa:RXR (NR concentration 270 nM, RXRa partner concentration 90 nM)?
0.893

What reported PBM binding z-score corresponds to `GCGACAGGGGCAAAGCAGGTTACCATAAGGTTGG` on RARa:RXR (NR concentration 270 nM, RXRa partner concentration 90 nM)?
1.19

Taken from the supplement of paper PMC6555819.
